Where do the numbers come from? From ChEMBL document CHEMBL3525925.

- Test system: Liver
- measurement notes: Drug uptake in rat liver at 50 mg/kg, po
- Assay type: ADME, organism-based
- Parameters: dose 50 mg/kg, route oral
- test settings: in vivo, read-out: Drug uptake
measured endpoint: concentration (µM)
Please respond with the number in µM and leave the unit unwritten.

Ask: Write down concentration measured for item CC(C)=CCC[C@](C)(O)[C@H]1CC[C@]2(C)[C@@H]1[C@H](O)C[C@@H]1[C@@]3(C)CC[C@H](O[C@@H]4O[C@H](CO)[C@@H](O)[C@H](O)[C@H]4O)C(C)(C)[C@@H]3CC[C@]12C [GINSENOSIDE RH2]
Result: 60

====

- Tested on: Liver
- measurement notes: Retention time in human liver S9 fraction treated with 10 uM 20(S)-ginsenoside Rh2 by MS2 spectra
- Assay type: ADME, subcellular
measured endpoint: Retention_time (min)
Please respond with the number in min and leave the unit unwritten.

Use these answered entries as a reference point.
molecule="CC(O)(CO)[C@@H]1CC[C@@](C)([C@H]2CC[C@]3(C)[C@@H]2[C@H](O)C[C@@H]2[C@@]4(C)CC[C@H](O[C@@H]5O[C@H](CO)[C@@H](O)[C@H](O)[C@H]5O)C(C)(C)[C@@H]4CC[C@]23C)O1 (some centres undefined)" measured_endpoint=Retention_time measured_number=16.2
molecule=C/C(=C\CC[C@](C)(O)[C@H]1CC[C@]2(C)[C@@H]1[C@H](O)C[C@@H]1[C@@]3(C)CC[C@H](O[C@@H]4O[C@H](CO)[C@@H](O)[C@H](O)[C@H]4O)C(C)(C)[C@@H]3CC[C@]12C)CO measured_endpoint=Retention_time measured_number=16.7
molecule=CC(C)(O)[C@H]1CC[C@@](C)([C@H]2CC[C@]3(C)[C@@H]2[C@H](O)C[C@@H]2[C@@]4(C)CC[C@H](O[C@@H]5O[C@H](CO)[C@@H](O)[C@H](O)[C@H]5O)C(C)(C)[C@@H]4CC[C@]23C)O1 measured_endpoint=Retention_time measured_number=20.2

Ask: Give measured Retention_time for C/C(=C/CC[C@](C)(O)[C@H]1CC[C@]2(C)[C@@H]1[C@H](O)C[C@@H]1[C@@]3(C)CC[C@H](O[C@@H]4O[C@H](CO)[C@@H](O)[C@H](O)[C@H]4O)C(C)(C)[C@@H]3CC[C@]12C)CO (Liver).
Result: 18.3

Ask: Give measured Retention_time for CC1(C)[C@@H](O[C@@H]2O[C@H](CO)[C@@H](O)[C@H](O)[C@H]2O)CC[C@]2(C)[C@H]3C[C@@H](O)[C@@H]4[C@@H]([C@@](C)(O)CCC=C(CO)CO)CC[C@@]4(C)[C@]3(C)CC[C@@H]12 (Liver).
Result: 12.2

Ask: Give measured Retention_time for CC(C)(O)[C@@H]1CC[C@@](C)([C@H]2CC[C@]3(C)[C@@H]2[C@H](O)C[C@@H]2[C@@]4(C)CC[C@H](O[C@@H]5O[C@H](CO)[C@@H](O)[C@H](O)[C@H]5O)C(C)(C)[C@@H]4CC[C@]23C)O1 (Liver).
Result: 18.9

Ask: Give measured Retention_time for C/C(=C/CC[C@](C)(O)[C@H]1CC[C@]2(C)[C@@H]1[C@H](O)C[C@@H]1[C@@]3(C)CC[C@H](O[C@@H]4O[C@H](CO)[C@@H](O)[C@H](O)[C@H]4O)C(C)(C)[C@@H]3CC[C@]12C)C(=O)O (Liver).
Result: 13.2

Ask: Give measured Retention_time for CC(O)(CO)[C@H]1CC[C@@](C)([C@H]2CC[C@]3(C)[C@@H]2[C@H](O)C[C@@H]2[C@@]4(C)CC[C@H](O[C@@H]5O[C@H](CO)[C@@H](O)[C@H](O)[C@H]5O)C(C)(C)[C@@H]4CC[C@]23C)O1 (some centres undefined) (Liver).
Result: 16.7

Ask: Give measured Retention_time for CC1(C)[C@@H](O[C@@H]2O[C@H](CO)[C@@H](O)[C@H](O)[C@H]2O)CC[C@]2(C)[C@H]3C[C@@H](O)[C@@H]4[C@@H]([C@@](C)(O)CC[C@@H]5O[C@@]5(C)CO)CC[C@@]4(C)[C@]3(C)CC[C@@H]12 (Liver).
Result: 15.6
